molecular target: MD2 (myeloid differentiation protein 2) (Homo sapiens, UniProt Q9Y6Y9); construct: recombinant human MD2 (rhMD2); test: SPR (ProteOn XPR36); supported by bis-ANS displacement and biotin-LPS competitive ELISA
Sequence (Q9Y6Y9 19-160): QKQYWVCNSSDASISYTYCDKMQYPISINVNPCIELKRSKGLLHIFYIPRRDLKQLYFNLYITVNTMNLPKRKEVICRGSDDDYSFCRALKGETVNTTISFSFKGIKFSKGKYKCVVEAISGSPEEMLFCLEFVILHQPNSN
metric: Kd (µM)
Response body: numeric value in µM, unit text excluded.

Lab request: please report Kd under test system MD2 (myeloid differentiation protein 2) (Homo sapiens, UniProt Q9Y6Y9) for `COc1ccc(C(=O)/C=C/c2cc(OC)c(OC)c(OC)c2)cc1OC`
189

Source: paper PMC4846832
